target_desc: human DGAT2 (hDGAT2) (Homo sapiens, UniProt Q96PD7)
Construct: made in house; host or cells: Sf-9 insect cells (baculovirus), membrane fraction
protocol_notes: DGAT2 Enzymatic Activity Assay
Assay type: biochemical
protocol_conditions: membrane prep of Sf-9 cells expressing hDGAT2; 25 μM diolein, 5 μM 13C oleoyl-CoA; 13C18-triolein by LC/MS/MS; read-out: Human DGAT2 IC50
assay_readout: IC50 (nM)

Use the examples below as a reference point.
smiles_code | assay_readout | recorded_number
CC(C)n1c(=O)n(-c2cccc(OC(F)(F)C(F)F)c2)c2ccc(C(=O)NC3(C)CS(=O)(=O)C3)cc21 | IC50 | 16
CC(C)n1c(=O)n(-c2cc(OC(F)F)ncc2F)c2ccc(C(=O)NC3(C)CS(=O)(=O)C3)cc21 | IC50 | 76
CC(C)n1c(=O)n(-c2cccc(OC(F)F)c2)c2cnc(C(=O)NC3(C)CCS(=O)(=O)CC3)cc21 | IC50 | 69.8

A: CC(C)n1c(=O)n(-c2cc(OC(F)F)ccc2F)c2ccc(C(=O)NC3(C)CS(=O)(=O)C3)cc21
B: CC(C)n1c(=O)n(-c2cccc(OC(F)(F)F)c2)c2ccc(C(=O)NC3(C)CCS(=O)(=O)CC3)cc21
C: CC(C)n1c(=O)n(-c2cccc(OCC(F)F)c2)c2ccc(C(=O)NC3(C)CCS(=O)(=O)CC3)cc21
D: CCOc1cc(-n2c(=O)n(C(C)C)c3cc(C(=O)N[C@]4(C)CCS(=O)(=O)C4)ccc32)c(F)cn1
Arrange these compounds by their IC50, starting with the largest number. Please list the labels in the order you were asked to rank them.
B, D, C, A
(B: 153 nM, D: 28 nM, C: 15 nM, A: 7.7 nM)

* * *

target_desc: human DGAT2 (hDGAT2) (Homo sapiens)
Construct: made in house; host or cells: Sf-9 insect cells (baculovirus), membrane fraction
Sequence (Q96PD7 1-388): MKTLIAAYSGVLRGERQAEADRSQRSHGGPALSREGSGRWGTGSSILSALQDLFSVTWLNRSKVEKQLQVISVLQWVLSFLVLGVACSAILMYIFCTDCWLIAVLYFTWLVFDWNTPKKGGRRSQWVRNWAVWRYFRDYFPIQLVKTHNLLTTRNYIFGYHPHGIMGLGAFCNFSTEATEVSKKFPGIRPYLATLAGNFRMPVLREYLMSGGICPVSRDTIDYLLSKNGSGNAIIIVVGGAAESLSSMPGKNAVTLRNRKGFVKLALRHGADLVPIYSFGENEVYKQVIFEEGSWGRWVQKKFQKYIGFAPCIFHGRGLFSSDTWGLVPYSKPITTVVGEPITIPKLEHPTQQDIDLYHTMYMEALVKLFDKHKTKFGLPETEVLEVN
protocol_notes: DGAT2 Enzymatic Activity Assay
Type: biochemical
protocol_conditions: membrane prep of Sf-9 cells expressing hDGAT2; 25 μM diolein, 5 μM 13C oleoyl-CoA; 13C18-triolein by LC/MS/MS; read-out: DGAT2 IC50
pIC50: −log10 of the molar value.
assay_readout: pIC50

molecule | pIC50
CCC(C)n1c(=O)n(-c2cccc(OC(F)F)c2)c2ccc(C(=O)NC3(C)CS(=O)(=O)C3)cc21 (single isomer, unassigned) [Example 46b] | 7.04
C[C@@]1(NC(=O)c2ccc3c(c2)n(C2CCC2)c(=O)n3-c2cccc(OC(F)F)c2)CCS(=O)(=O)C1 [Example 37] | 7.19
CC(n1c(=O)n(-c2cccc(OC(F)(F)C(F)F)c2)c2ccc(C(=O)NC3(C)CS(=O)(=O)C3)cc21)C(C)(C)O (single isomer, unassigned) [Example 76b] | 8.10
CC(C)n1c(=O)n(-c2cccc(OC(F)(F)C(F)F)c2)c2ncc(C(=O)N[C@]3(C)CCS(=O)(=O)C3)cc21 [Example 95] | 7.64
CC(n1c(=O)n(-c2cc(OCC(F)F)ncc2F)c2ccc(C(=O)NC3(C)CCS(=O)(=O)CC3)cc21)C(C)(C)O (single isomer, unassigned) [Example 72a] | 8.19

1: CC(C)n1c(=O)n(-c2cccc(OC(F)F)c2)c2ccc(C(=O)N[C@H]3CCCC(F)(F)[C@@H]3O)cc21 [Example 30]
2: CC(C)n1c(=O)n(-c2cccc(OC(F)F)c2)c2c(F)cc(C(=O)N[C@@]3(C)CCS(=O)(=O)C3)cc21 [Example 109]
3: CC(n1c(=O)n(-c2cc(OC(F)F)ccc2F)c2ccc(C(=O)NC3(C)CCS(=O)(=O)CC3)cc21)C(C)(C)O (single isomer, unassigned) [Example 66b]
4: CC(C)Oc1cc(-n2c(=O)n(C(C)C)c3cc(C(=O)NC4(C)CCS(=O)(=O)CC4)ccc32)c(F)cn1 [Example 51]
5: Cn1c(=O)n(-c2cccc(OC(F)F)c2)c2ccc(C(=O)NC3(C)CS(=O)(=O)C3)cc21 [Example 60]
Task field, ranking: reported pIC50, descending order. Provide the labels, sequenced as the question asks.
2, 3, 1, 4, 5

* * *

target_desc: human DGAT2 (hDGAT2) (Homo sapiens, UniProt Q96PD7)
Construct: made in house; host or cells: Sf-9 insect cells (baculovirus), membrane fraction
protocol_notes: DGAT2 Enzymatic Activity Assay
Type: biochemical
protocol_conditions: membrane prep of Sf-9 cells expressing hDGAT2; 25 μM diolein, 5 μM 13C oleoyl-CoA; 13C18-triolein by LC/MS/MS; read-out: DGAT2 IC50
pIC50: −log10 of the molar value.
assay_readout: pIC50

Study these solved cases before continuing.
molecule | pIC50
CC(n1c(=O)n(-c2cccc(OC(F)F)c2)c2ccc(C(=O)NC3(C)CCS(=O)(=O)CC3)cc21)C(C)(C)O (single isomer, unassigned) [Example 67a] | 8.80
CC(n1c(=O)n(-c2cc(OCC(F)F)ncc2F)c2cc(F)c(C(=O)NC3(C)CCS(=O)(=O)CC3)cc21)C(C)(C)O (single isomer, unassigned) [Example 74b] | 8.19
CC1(NC(=O)c2ccc3c(c2)n(CC(F)(F)F)c(=O)n3-c2cccc(OC(F)F)c2)CS(=O)(=O)C1 [Example 43] | 6.69
CC(C)n1c(=O)n(-c2cc(OC(F)F)ncc2F)c2cc(F)c(C(=O)NC3(C)CS(=O)(=O)C3)cc21 [Example 123] | 7.14

A: CC(C)n1c(=O)n(-c2cccc(OC(F)F)c2)c2c(F)cc(C(=O)N[C@]3(C)CCS(=O)(=O)C3)cc21 [Example 110]
B: CC(C)n1c(=O)n(-c2cccc(OC(F)F)c2)c2ccc(C(=O)N[C@@]3(C)CCS(=O)(=O)C3)cc21 [Example 32]
// max by pIC50 over [ A , B ] Your choice should be expressed through its label.
A

* * *

target_desc: human DGAT2 (hDGAT2) (Homo sapiens)
Construct: made in house; host or cells: Sf-9 insect cells (baculovirus), membrane fraction
protocol_notes: DGAT2 Enzymatic Activity Assay
Assay type: biochemical
protocol_conditions: membrane prep of Sf-9 cells expressing hDGAT2; 25 μM diolein, 5 μM 13C oleoyl-CoA; 13C18-triolein by LC/MS/MS; read-out: DGAT2 IC50
assay_readout: IC50 (nM)

compound | target_desc | assay_readout | recorded_number
CC(C)n1c(=O)n(-c2cccc(OC(F)F)c2)c2ccc(C(=O)N[C@]3(C)CCS(=O)(=O)C3)c(F)c21 | human DGAT2 (hDGAT2) (Homo sapiens) | IC50 | 203

1: CCOc1cc(-n2c(=O)n(C(C)C(C)(C)O)c3cc(C(=O)NC4(C)CCS(=O)(=O)CC4)ccc32)c(F)cn1 (single isomer, unassigned) [Example 69b]
2: CC(C)n1c(=O)n(-c2cccc(OC(F)F)c2)c2ncc(C(=O)N[C@@]3(C)CCS(=O)(=O)C3)cc21
Pick the one with the larger IC50: 1 vs 2 Output the label that corresponds to your choice.
2
(2: 288 nM, 1: 3.9 nM)

* * *

target_desc: human DGAT2 (hDGAT2) (Homo sapiens)
Construct: made in house; host or cells: Sf-9 insect cells (baculovirus), membrane fraction
protocol_notes: DGAT2 Enzymatic Activity Assay
Format: biochemical
protocol_conditions: membrane prep of Sf-9 cells expressing hDGAT2; 25 μM diolein, 5 μM 13C oleoyl-CoA; 13C18-triolein by LC/MS/MS; read-out: Human DGAT2 IC50
Method: Insect Cell Expression and Membrane Preparation Sf-9 insect cells were maintained in Grace's insect cell culture medium with 10% heated-inactivated fetal bovine serum, 1% Pluronic F-68 and 0.14 μg/ml Kanamycine sulfate at 27° C. in a shaker incubator. […] The protein concentration was determined with the Pierce™ BCA Protein Assay Kit (Thermo Fisher Scientific). […]
pIC50: −log10 of the molar value.
assay_readout: pIC50

In the examples that follow, each entry is paired with its recorded pIC50.
compound | pIC50
CC(C)n1c(=O)n(-c2cccc(OC(F)F)c2)c2cc(Cl)c(C(=O)NC3(C)CCS(=O)(=O)CC3)cc21 | 6.95
CCOc1cc(-n2c(=O)n(C(C)C)c3cc(C(=O)NC4(C)CS(=O)(=O)C4)ccc32)c(F)cn1 | 7.49
CC(C)n1c(=O)n(-c2cccc(OC(F)F)c2)c2ccc(C(=O)NC3(C)CCS(=O)(=O)CC3)c(Cl)c21 | 5.86
CC(C)n1c(=O)n(-c2cccc(OCC(F)F)c2)c2ccc(C(=O)NC3(C)CS(=O)(=O)C3)cc21 | 7.37
CC(C)n1c(=O)n(-c2cccc(C3CC3)c2)c2ccc(C(=O)NC3(C)CS(=O)(=O)C3)cc21 | 7.77
CC(C)n1c(=O)n(-c2cccc(OC(F)F)c2)c2ccc(C(=O)N[C@@]3(C)CCS(=O)(=O)C3)c(F)c21 | 6.72
CCOc1cc(-n2c(=O)n(C(C)C)c3cc(C(=O)N[C@@]4(C)CCS(=O)(=O)C4)ccc32)c(F)cn1 | 6.91
CC(C)n1c(=O)n(-c2cc(OC(F)F)ccc2F)c2ccc(C(=O)N[C@]3(C)CCS(=O)(=O)C3)cc21 | 8.24

1: CC(C)n1c(=O)n(-c2cc(OC(F)F)ncc2F)c2cc(F)c(C(=O)NC3(C)CS(=O)(=O)C3)cc21
2: CC(C)n1c(=O)n(-c2cccc(OC(F)F)c2)c2cnc(C(=O)NC3(C)CS(=O)(=O)C3)cc21
Which record would sort first by descending pIC50, 1 or 2 ? # reply format: chosen label
1
(1: 7.18, 2: 5.74)

a: CC(n1c(=O)n(-c2cc(OC(F)F)ccc2F)c2ccc(C(=O)NC3(C)CS(=O)(=O)C3)cc21)C(C)(C)O (single isomer, unassigned) [EX-65a]
b: CC(C)n1c(=O)n(-c2cncc(OC(F)F)c2)c2ccc(C(=O)NC3(C)CS(=O)(=O)C3)cc21
Given a and b , report the one with the higher recorded pIC50. Identify your selection by its label.
a
